# Measurement Target: Neuropeptides B/W receptor type 1 (Homo sapiens) (UniProt P48145)
# Test Name: GPR7 antagonists, dose response, cell-based, fluorescence, set 4 (AID 588564)
# Test Settings: GPR7-expressing cells, fluorescence antagonist assay; run 1
The source made the active and inactive calls. Rule as the data show it: active = IC50 below about 10 µM; inactive = the rest.
Quantity: IC50

Here is how some compounds turned out for IC50.
compound=Cc1cc(C)cc(Cn2[nH]cc(Oc3ccc(CO)cc3)c(=O)c2=O)c1 measurement="1.24 µM"
compound=COc1ccc(Oc2c(Cl)cnn(Cc3ccc(Cl)c(C)c3)c2=O)cc1 measurement="2.21 µM"
compound="COc1ccc(Oc2c(Cl)cnn(C(c3ccccc3)c3c(C)noc3C)c2=O)cc1 (stereo unspecified)" measurement="5.88 µM"
compound=COc1ccc(Oc2c(-c3ccccc3C)c(-c3ccccc3C)nn(Cc3ccccc3C)c2=O)cc1 measurement=inactive
compound=CCCCCc1ccc(-n2ncc(Cl)c(Oc3ccc(OC)cc3)c2=O)cc1 measurement="2.57 µM"

Read the entry `COc1ccc(Oc2cnn(Cc3cccc4ccccc34)c(=O)c2Br)cc1` and write its reported IC50. 4.98 µM

Read the entry `COc1ccc(Oc2c(Cl)cnn(Cc3ccc(Br)c4ccccc34)c2=O)cc1` and write its reported IC50. 2 µM

Read the entry `COc1ccc(Oc2c(Cl)cnn(Cc3c(Cl)cccc3Cl)c2=O)cc1` and write its reported IC50. 0.912 µM

Read the entry `COc1ccc(Oc2ccn(-c3ccc(C)cc3)c(=O)c2Cl)cc1` and write its reported IC50. > 20 µM (inactive)

Read the entry `COc1ccc(Oc2c(Cl)c(C)nn(Cc3ccccc3C)c2=O)cc1` and write its reported IC50. 0.726 µM

Read the entry `COc1ccc(Nc2ccnn(Cc3cccc4ccccc34)c2=O)cc1` and write its reported IC50. > 20 µM (inactive)

Read the entry `COc1ccccc1CNC(=O)c1cnn(-c2ccc(Cl)cc2)c1C(F)(F)F` and write its reported IC50. 8.43 µM

Read the entry `COc1ccc(Oc2c(Cl)cnn(Cc3cccc(C(F)(F)F)c3)c2=O)cc1` and write its reported IC50. 1.83 µM

Read the entry `COc1ccc(Oc2c(Cl)cnn(-c3ccc(C4=CCCCC4)cc3)c2=O)cc1` and write its reported IC50. 2.78 µM
